All values here come from PubChem BioAssay (NCI).

Reported TGI by item:
test system: RPMI-8226 leukemia; assay: NCI tumour cell line growth inhibition, 48 h
EXPERIMENTAL_READOUT: TGI

MOLECULE | RESULT
CC1=CC(=O)N(n2c(Cc3ccccc3)n[nH]c2=O)C1=O | > 100 µM
N#Cc1nc(C2=C(Cl)c3ccccc3OC2)[nH]c1C#N | 61 µM
COC1=CC2(C=CC1=O)c1cc(OC)c(OC)cc1CCN2C(=O)c1ccccc1 (configuration not stated) | > 100 µM
C/C(=C1/CCC/C(=C(/C)c2ccccc2)C1=O)c1ccccc1 | > 100 µM
CC12CCC([C@H](C(O)C3CCCCC3)C1=O)C2(C)C (some centres not stated) | > 100 µM
C/C=C(/C)C(=O)O[C@H]1C[C@@H]2[C@@H](O)c3occ(C)c3C[C@]2(C)[C@@H](C)C1 | 76.5 µM
CCOC(=O)C(O)(NC(=O)c1ccc(F)cc1)C(F)(F)F (configuration not stated) | > 100 µM
